Biological target: Rap guanine nucleotide exchange factor 3 (Homo sapiens)
Experiment: Counterscreen qHTS for antagonist of cAMP-regulated guanine nucleotide exchange factor 3 (EPAC1) (AID 1645888);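 further: fluorescence loss as bound BODIPY-GDP is released from Rap1B; % of control where 0% means no effect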
Details: Rap1B-BODIPY-GDP nucleotide exchange, fluorescence; series mostly up to 154 µM
Results filed as inconclusive are left out. The source made the active and inactive calls. The call rests on the fitted dose curve; in most records, active means well fitted inhibition curve with a large enough effect; inconclusive means small, poorly fitted or top-dose-only effect; inactive means no such curve, though single readings can be large or run the other way.
MEASUREMENT_KIND: activity change, negative = inhibition

CC(C)CN(C(=O)CC1OC(=O)c2ccccc21)c1c(N)n(Cc2ccccc2)c(=O)[nH]c1=O (configuration not stated)
inactive
CCOC(=O)c1ccc(NC(=O)CSc2nc(=O)n3cccc(C)c3n2)cc1
inactive
CC1Cc2nc(SCC(=O)NCc3ccccc3)n(Cc3ccccc3)c(=O)c2S1 (configuration not stated)
0.448% [at 30.8 µM] (inactive)
Cc1nn(-c2ccccc2)c(Cl)c1/C=C1\SC(=S)NC1=O
inactive
COc1ccccc1C(CC(=O)N1CCCC1)c1ccc2c(c1)OCO2 (configuration not stated)
-9.86% [at 30.8 µM] (inactive)
N#C/C(=C/c1ccc(N2CCOCC2)o1)C(=O)Nc1ccccc1
inactive

Query string: Please report the measured activity change, negative = inhibition for CCOC(=O)C1CCCCN1C(=O)c1oc2c(Cl)cc(C)cc2c1C (configuration not stated)
Result string: inactive

Query string: Please report the measured activity change, negative = inhibition for `C=CCCCN(Cc1ccccc1)S(=O)(=O)c1ccccc1Br`
Result string: -1.46% [at 30.8 µM] (inactive)

Query string: Please report the measured activity change, negative = inhibition for `COc1ccc2cc3[n+](cc2c1O)CCc1cc2c(cc1-3)OCO2`
Result string: inactive

Query string: Please report the measured activity change, negative = inhibition for COC(=O)C(CC(=O)c1ccc(C)cc1)n1cccn1 (configuration not stated)
Result string: inactive

Query string: Please report the measured activity change, negative = inhibition for `O=[N+]([O-])c1cc([N+](=O)[O-])c2nonc2c1Nc1ccc(O)cc1`
Result string: inactive

* * *

Tested on: CP256
Assay: qHTS profiling for inhibitors of Plasmodium falciparum proliferation (AID 504749); further: nearly all actives have a fitted effect of over 60% in size
Details: P. falciparum in erythrocytes, SYBR Green DNA, 72 h; series mostly up to 12.8 µM
Inconclusive results are not listed. The source made the active and inactive calls. Calls come from the whole dose curve; as a rule, active = well fitted inhibition curve with a large enough effect; inconclusive = small, poorly fitted or top-dose-only effect; inactive = flat fitted curve, though single readings scatter. Bridge positions count the residues as written; N and C are the ends. Square brackets hold non-standard residues; d marks the D form. Peptide text beside a SMILES is read from it. * marks the point of attachment. Ileψ(thiazoline)Cys = CC[C@H](C)[C@H](N)C1=N[C@H](C(=O)*)CS1; d(aIle) = CC[C@H](C)[C@@H](N)C(=O)O; dOrn = NCCC[C@@H](N)C(=O)O
Could you please pick one outcome from this set? true for active, false for inactive

Query string: Recorded test outcome, item `C=CCN1C(=CCO)[C@H]2C[C@H]3[C@@H]1CC[C@@]31c3ccccc3N3C=C4[C@@H]5N(/C=C/2[C@H]31)c1ccccc1[C@]51CC[C@H]2[C@H]1C[C@@H]4/C(=C/CO)N2CC=C`
Result string: false

Query string: Recorded test outcome, item CC[C@H](C)[C@H](N)C1=N[C@H](C(=O)N[C@@H](CC(C)C)C(=O)N[C@@H](CCC(=O)O)C(=O)N[C@@H](C(=O)N[C@H]2CCCCNC(=O)[C@@H](CC(N)=O)NC(=O)[C@@H](CC(=O)O)NC(=O)[C@@H](Cc3cnc[nH]3)NC(=O)[C@@H](Cc3ccccc3)NC(=O)[C@@H]([C@@H](C)CC)NC(=O)[C@@H](CCCN)NC2=O)[C@@H](C)CC)CS1 ({Ileψ(thiazoline)Cys}-LE[d(aIle)]K[dOrn][d(aIle)][dF][dH][dD][dN]; lactam 4-C)
Result string: false

Query string: Recorded test outcome, item `COc1cc(N)c(Cl)cc1C(=O)N[C@H]1CCN(CCCOc2ccc(F)cc2)C[C@H]1OC`
Result string: true

Query string: Recorded test outcome, item C[C@]12CCC(=O)C=C1CCC1C2C(=O)C[C@]2(C)C1CC[C@]2(O)C(=O)CO (stereo not given in full)
Result string: false

Query string: Recorded test outcome, item CC1(C)S[C@H]2C(NC(=O)[C@@H](N)c3ccc(O)cc3)C(=O)N2[C@@H]1C(=O)O (stereo not given in full)
Result string: false

* * *

Molecular target: Rap guanine nucleotide exchange factor 3 (Homo sapiens)
Experiment: Confirmatory qHTS for antagonist of cAMP-regulated guanine nucleotide exchange factor 3 (EPAC1) (AID 1645880); further: nearly all actives have a fitted effect of over 55% in size; further: potency means the concentration at half of the fitted maximal effect
Conditions: EPAC1 Rap1B-BODIPY-GDP exchange, fluorescence; series mostly up to 115 µM
Results filed as inconclusive are left out. Active and inactive are the calls of the source. Calls follow the shape of the dose curve; as a rule, active = well fitted inhibition curve with a large enough effect; inconclusive = small, poorly fitted or top-dose-only effect; inactive = no such curve, though single readings can be large or run the other way.
MEASUREMENT_KIND: Potency

Reference set (5 entries):
Cn1c(Cc2cccs2)nnc1SCc1nc2ccccc2[nH]1
inactive
Cc1ccc(C(=O)Nc2ccc(N3CCOCC3)c3nonc23)cc1[N+](=O)[O-]
47.8 µM (active)
CC(C)[C@H](NC(=O)NCCc1ccc(F)cc1)C(=O)O
inactive
Cc1ccc(S(=O)(=O)Nc2cccc(C(=O)NCC(c3ccco3)N3CCCCC3)c2)cc1F (configuration not stated)
inactive
COc1cc(CCc2ccccc2)c(C(=O)O)c(O)c1CC=C(C)C
42.6 µM (active)

Query string: Please report the measured Potency for `Cc1ccc(-c2csc(NS(=O)(=O)c3cccc(F)c3)n2)o1`
Result string: 14.1 µM (active)

Query string: Please report the measured Potency for `Cc1cc(C)c(OCC(=O)Nc2ccccc2N2CCCCC2)c(C)c1`
Result string: inactive

Query string: Please report the measured Potency for CCOC(=O)C1=C(C)N=C2SC=C(C)N2C1c1ccc(OC)cc1 (configuration not stated)
Result string: inactive

Query string: Please report the measured Potency for `CN(C(=O)CSc1nc(-c2ccc(C(C)(C)C)cc2)c(C#N)c(=O)[nH]1)C1CCCCC1`
Result string: 42.6 µM (active)

Query string: Please report the measured Potency for `CC1=NOC(=O)/C1=C\c1ccc(-c2cc(Cl)ccc2Cl)o1`
Result string: 23.9 µM (active)

* * *

Assay: qHTS Assay for Lipid Storage Modulators (AID 1519); further: on the % scale 0 is the no-effect control and ±100 the full control effect
Settings: Drosophila S3 cells, BODIPY lipid droplet/cell ratio, laser cytometry; at 25.7 µM (top of the series); cells loaded with oleic acid
Protocol: NIH Molecular Libraries Probe Production Centers Network [MLPCN] NIH Chemical Genomics Center [NCGC] Assay Submitter (PI): Beller, Mathias; Max-Planck-Institut fur Biophysikalische Chemie […] We dispensed 4 uL of cells at 1.25 x 10^6 cells/mL into LoBase Aurora COC 1,536-well plates (black walled, clear bottom) with a bottle-valve solenoid-based dispenser (Aurora) to obtain 5,000 cells/well. […] The ratio of the total intensity in PMT channel 1 over total intensity of channel 3 was also calculated. […]
Results filed as inconclusive are left out.
MEASUREMENT_KIND: activity change, negative = inhibition (%)
Respond with the bare value in %.

Reference set (6 entries):
C[N+]1(C)CCC[C@H]1C(=O)[O-]
-1.16
COCC(=O)Nc1c(I)c(C(=O)NC[C@@H](O)CO)c(I)c(C(=O)N(C)C[C@@H](O)CO)c1I
-0.947
Cc1ccc2c(c1)c1c3n2CCN[C@H]3CCC1
-2.69
CO[C@@H]1CC[C@@]2(C)[C@@H](CC[C@@]3(C)[C@H]2CC=C2[C@H]4CC(C)(C)[C@H](O)[C@@H](OC(C)=O)[C@]4(CO)[C@H](O)C[C@]23C)[C@@]1(C)CO (tested in a mixture with another compound)
0.0322
Cc1n[nH]c(=O)[nH]c1=O
1.08
Cc1cccc(CN2CCN([C@@H](c3ccccc3)c3ccc(Cl)cc3)CC2)c1
-11.4

Query string: Please report the measured activity change, negative = inhibition for `O=C(/C=C\C=C/c1ccc2c(c1)OCO2)N1CCCCC1`
Result string: 2

Query string: Please report the measured activity change, negative = inhibition for `C#C[C@@]1(O)CC[C@@H]2[C@@H]3CCC4=CC(=O)CC[C@@H]4[C@H]3CC[C@]21CC`
Result string: -1.97

Query string: Please report the measured activity change, negative = inhibition for `C[C@@H](CNC1CCCCC1)OC(=O)c1ccccc1`
Result string: -3.84

* * *

Target: Rap guanine nucleotide exchange factor 3 (Homo sapiens)
Assay: Confirmatory qHTS for antagonist of cAMP-regulated guanine nucleotide exchange factor 3 (EPAC1) (AID 1645880); further: nearly all actives have a fitted effect of over 55% in size; further: potency means the concentration at half of the fitted maximal effect
Conditions: EPAC1 Rap1B-BODIPY-GDP exchange, fluorescence; series mostly up to 115 µM
Results filed as inconclusive are left out. Calls of active or inactive are those of the source. Calls come from the whole dose curve; as a rule, active = well fitted inhibition curve with a large enough effect; inconclusive = small, poorly fitted or top-dose-only effect; inactive = no such curve, though single readings can be large or run the other way.
MEASUREMENT_KIND: Potency

Reference set (8 entries):
NC(=O)c1cc2ccccc2o/c1=N\NC(=O)c1ccncc1
inactive
N#CCC(=O)Nc1sc2c(c1C(N)=O)CCCC2
inactive
O=C(c1ccc([N+](=O)[O-])o1)N1CCN(c2nc3c(Cl)cccc3s2)CC1
inactive
COc1ccc2c(c1)CC/C(=C\Nc1ccc3c(c1)OCO3)C2=O
inactive
CC(=O)N1c2ccc(S(=O)(=O)NCCc3ccccc3)cc2CC1C (configuration not stated)
inactive
Cc1cccc(NC(=S)NC(=O)c2oc3ccccc3c2C)n1
inactive
CC1(C)Cc2ccccc2-c2nnc(-c3ccc4ccccc4n3)n21
inactive
Cc1ccc(-n2c(SCC(=O)N/N=C/c3ccccc3C(=O)O)nnc2-c2ccc(Cl)cc2)cc1
inactive

Query string: Please report the measured Potency for `CCc1ccc(Nc2n[n+](-c3ccccc3)c(-c3cc(OC)c(OC)cc3Br)s2)cc1`
Result string: inactive

Query string: Please report the measured Potency for `COc1ccc(C(=O)NCCONC(=O)c2ccc(OC)cc2)cc1`
Result string: inactive

Query string: Please report the measured Potency for `Cc1cc(C)c(C(=O)c2cccs2)c(C)c1`
Result string: inactive

Query string: Please report the measured Potency for `COc1ccc(NC(=O)Cn2cnc3sc(C)c(S(=O)(=O)N4CCOCC4)c3c2=O)c(OC)c1`
Result string: inactive

Query string: Please report the measured Potency for `CCOc1cc(-c2nnc(NC(=O)C3=COCCO3)o2)cc(OCC)c1OCC`
Result string: inactive

Query string: Please report the measured Potency for `COc1ccc(CCNC(=O)CCc2nc3sc4c(c3c(=O)[nH]2)CCCC4)cc1`
Result string: 84.9 µM (active)
